Cited source for all entries: patent US20250073209A1

Test system: HT29 spheroid
Assay: Spheroid formation assay, HT29
Type: cell-based, human
Conditions: Homo sapiens, HT-29, 240 h; 10 days; read-out: cytotoxic IC50 in HT29 spheroids

- Compound: "O=C(CCl)N1N=C(c2cc3ccccc3o2)CC1c1ccco1 (stereo not shown)"
  IC50 [µM]: 5.57
